Assay: in vitro
Details: human
Measurement Label: CC50

Query string: Consider the compound CC(=O)c1c(O)c(C)c(O)c(Cc2c(O)c3c(c(C(=O)/C=C/c4ccccc4)c2O)OC(C)(C)C=C3)c1O . State its measured CC50.
Result string: 18.2 µM

All values here come from paper PMC2614658.
